# PROTOCOL_SUMMARY: Acid gas loading capacity: CO2 loading and stripping experiment
# Format: physicochemical
# RUN_PARAMETERS: 30 wt.-% amine in water, stripping at 80° C. with N2 8 L (STP)/h, 60 min
VALUE_KIND: CO2 loading after stripping (mol CO2/molamine)

Here's what some known entries look like.
> print(dat)
                                   compound       unit.abbrev  measurement
1                   CN1CCN(CCCNC(C)(C)C)CC1  mol CO2/molamine         0.70
2  CC(C)(C)NCCOCCO [TBAEE, 2-(2-tert-butylaminoethoxy)ethanol, reference compound]  mol CO2/molamine         0.24

(1) CN1CCN(CCNC(C)(C)C)CC1
(2) CCN(CC)CCN1CCN(CC)CC1 [DEAE-EPIP, reference compound]
stdin: Sorting ascending by CO2 loading after stripping, which comes first: 1 or 2 ? // respond with label for picked entry
stdout: 2

----------
# PROTOCOL_SUMMARY: Acid gas loading capacity: CO2 loading and stripping experiment
# Type: physicochemical
# RUN_PARAMETERS: 30 wt.-% amine in water; difference of loading after loading and after stripping
VALUE_KIND: Cyclic CO2 capacity (mol CO2/molamine)

Here's what some known entries look like.
> print(dat)
                              compound  measurement
1  CN1CCN(CCCNC(C)(C)C)CC1 [TBAP-MPIP]         0.71
2   CN1CCN(CCNC(C)(C)C)CC1 [TBAE-MPIP]         1.24

(1) CCN(CC)CCN1CCN(CC)CC1 [DEAE-EPIP, reference compound]
(2) CC(C)(C)NCCOCCO [TBAEE, 2-(2-tert-butylaminoethoxy)ethanol, reference compound]
stdin: Exercise: compare 1 and 2 ; which one has the greater Cyclic CO2 capacity? // respond with label for picked entry
stdout: 1
